Target: Ecm22 (UniProt Q05958)
Sequence: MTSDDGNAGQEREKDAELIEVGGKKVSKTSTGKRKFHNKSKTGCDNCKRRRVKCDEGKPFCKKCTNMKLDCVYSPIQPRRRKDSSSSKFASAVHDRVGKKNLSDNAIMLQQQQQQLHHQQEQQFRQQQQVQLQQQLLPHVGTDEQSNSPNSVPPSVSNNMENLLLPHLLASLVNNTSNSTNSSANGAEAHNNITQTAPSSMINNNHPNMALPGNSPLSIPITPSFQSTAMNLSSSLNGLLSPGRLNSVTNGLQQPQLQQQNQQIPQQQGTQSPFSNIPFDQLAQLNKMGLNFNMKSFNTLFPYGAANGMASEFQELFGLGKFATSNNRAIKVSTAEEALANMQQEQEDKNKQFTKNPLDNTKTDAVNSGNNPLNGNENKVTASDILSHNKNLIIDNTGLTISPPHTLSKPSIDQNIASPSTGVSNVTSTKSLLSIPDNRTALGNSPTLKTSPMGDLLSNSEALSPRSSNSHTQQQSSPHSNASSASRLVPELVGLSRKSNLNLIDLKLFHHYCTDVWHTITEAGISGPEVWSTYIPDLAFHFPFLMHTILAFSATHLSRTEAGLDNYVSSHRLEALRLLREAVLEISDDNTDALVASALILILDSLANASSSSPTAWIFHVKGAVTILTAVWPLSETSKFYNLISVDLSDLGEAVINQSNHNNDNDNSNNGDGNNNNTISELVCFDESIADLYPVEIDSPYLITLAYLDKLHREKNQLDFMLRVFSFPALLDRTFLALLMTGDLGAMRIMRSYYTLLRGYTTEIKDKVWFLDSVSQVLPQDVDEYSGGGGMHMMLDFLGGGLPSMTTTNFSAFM
Test: PBM E-score (8-mer binding enrichment) (E-score (-0.5 to 0.5)); higher = stronger / more preferred TF binding
Settings: protein concentration: 200 nM; construct: GST-full length
Whole data set: some 33,000 sequences, median “E-score (-0.5 to 0.5)” near -0.041, cut for the highest 2% near 0.37. The sample holds the highest values, similar sequences and a random draw of the others, so the mix is not that of the screen.
So basically: PBM E-score at 0.09 or higher? That is criterion met. Lower than 0.09? That is criterion not met.

ATACGAGA : criterion met
CAATGACG : criterion not met
CGAACGCA : criterion met
CTACGAGC : criterion met

Prompt: hey, is PBM E-score for this one >= 0.09? ATACGAGC
Completion: criterion met

Prompt: Similarly, ACTTTACA ?
Completion: criterion not met

Prompt: Similarly, AACATCGT ?
Completion: criterion met

Prompt: Similarly, AGACGAGC ?
Completion: criterion met

Prompt: Similarly, ACGGTACC ?
Completion: criterion met

Prompt: Similarly, AATTTACG ?
Completion: criterion met

Prompt: Similarly, CCGGTACA ?
Completion: criterion not met

Prompt: Similarly, GTTGAAAC ?
Completion: criterion not met

Prompt: Similarly, ACGCATAA ?
Completion: criterion met

Prompt: Similarly, CCGCATAA ?
Completion: criterion met

Prompt: Similarly, GAGAACAA ?
Completion: criterion met

Prompt: Similarly, AACGGAGA ?
Completion: criterion met

Prompt: Similarly, CCGGTACC ?
Completion: criterion not met

Prompt: Similarly, TCCGCCAA ?
Completion: criterion not met
